B1: PhoQ; a variant is named by its letters at X, in order, P23837 (parent)
chain: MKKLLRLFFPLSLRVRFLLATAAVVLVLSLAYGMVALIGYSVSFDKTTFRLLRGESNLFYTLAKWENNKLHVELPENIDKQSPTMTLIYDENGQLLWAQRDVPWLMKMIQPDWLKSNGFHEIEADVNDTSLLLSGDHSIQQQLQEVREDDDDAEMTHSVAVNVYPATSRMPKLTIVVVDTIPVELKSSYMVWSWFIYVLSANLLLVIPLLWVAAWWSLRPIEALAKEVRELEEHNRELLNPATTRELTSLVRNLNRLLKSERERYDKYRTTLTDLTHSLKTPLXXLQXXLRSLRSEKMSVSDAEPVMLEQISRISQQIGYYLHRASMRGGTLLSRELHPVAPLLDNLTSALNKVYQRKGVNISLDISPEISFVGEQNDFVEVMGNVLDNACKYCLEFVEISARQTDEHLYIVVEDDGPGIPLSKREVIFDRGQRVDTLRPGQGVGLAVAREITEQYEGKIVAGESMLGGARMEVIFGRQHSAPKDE

- Variants of: B1
- EXPERIMENT NOTES: enrichment ratio after two sorts for PhoP signalling (ratio (wild type AVST 3.29)); higher = more functional
- ASSAY CONTEXT: with PhoP (E. coli)
In all, about 140,000 sequences were measured (“enrichment ratio after two sorts for PhoP signalling”: median about 0, highest 2% from about 11 on). This is one part of a sample in which the highest values are shown more often than they occur.
Below, each entry is listed alongside its reported enrichment ratio.

// solved cases for enrichment ratio follow
INSERT INTO assay_data (variant_name, readout_name, value) VALUES
  ('RSTE', 'enrichment ratio', '≤ 0.25'),
  ('YELM', 'enrichment ratio', 13.8);

// query Return reported enrichment ratio; argument: SHLM
// result 19.3
